Test system: UO-31
ASSAY OVERVIEW: NCI tumour cell line growth inhibition, 48 h
Calls of active or inactive are those of the source. Rule as the data show it: active = GI50 up to about 1.1 µM and inactive = higher.
EXPERIMENTAL READOUT: GI50

Example entries and their recorded answers appear below.
input: What GI50 value was documented for this compound, C=CC1(NS(=O)(=O)c2ccc(C)cc2)CCC(C(C)(C)C)CC1 (stereo not given) ?
output: > 100 µM (inactive)

input: Field entry: O=C(O)c1nnsc1-c1csnn1
output: > 100 µM (inactive)

More entries:
input: Query (compound): N#C/C(=C\c1ccc(CP(=O)(O)O)cc1)C(N)=O ; field requested: GI50
output: > 100 µM (inactive)

input: // next record CCSc1cc(C(=O)OC)c2n(c1=O)CCCC2
output: > 100 µM (inactive)

input: Same read-out for CC1(C)OC[C@@H]([C@@]2(COC(c3ccccc3)(c3ccccc3)c3ccccc3)CC=CC(=O)O2)O1 ?
output: 32.4 µM (inactive)

Reference source for all entries: ChEMBL document CHEMBL1201862
